molecular target: human serum albumin (human) (UniProt P02768); experiment: screening ELISA
Sequence (P02768 25-609 limits assumed): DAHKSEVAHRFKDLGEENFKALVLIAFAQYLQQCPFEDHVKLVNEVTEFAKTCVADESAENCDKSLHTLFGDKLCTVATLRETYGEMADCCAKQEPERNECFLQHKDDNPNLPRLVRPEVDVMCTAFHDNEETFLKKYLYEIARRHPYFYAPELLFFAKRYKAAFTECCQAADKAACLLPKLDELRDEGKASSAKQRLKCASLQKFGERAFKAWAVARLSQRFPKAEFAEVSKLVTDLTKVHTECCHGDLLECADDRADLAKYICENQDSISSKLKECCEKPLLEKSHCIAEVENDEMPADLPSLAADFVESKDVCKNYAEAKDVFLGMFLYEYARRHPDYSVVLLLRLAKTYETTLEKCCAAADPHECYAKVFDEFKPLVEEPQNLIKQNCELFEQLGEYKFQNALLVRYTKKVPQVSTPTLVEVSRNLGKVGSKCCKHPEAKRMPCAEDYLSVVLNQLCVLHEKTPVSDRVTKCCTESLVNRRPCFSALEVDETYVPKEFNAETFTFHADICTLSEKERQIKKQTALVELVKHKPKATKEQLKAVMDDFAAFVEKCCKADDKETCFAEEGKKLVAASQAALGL
EXPERIMENTAL READOUT: HSA

(P) SEQ ID NO 288 (designed binder) MLPAPKNLVVSRVTEDSARLSWTAPDAAFDSFLIPYAETSPSGEAIVLTVPGSERSYDLTGLKPGTEYSVLIHGVKGGDYSSPLSAISTT
(Q) SEQ ID NO 153 (designed binder) MLPAPKNLVVSRVTEDSARLSWTAPDAALDSFRIAYTEYFVGGEAIVLTVPGSERSYDLTGLKPGTEYGVGIYGVKGGAGSSPLSAIFTT
Prompt line: Consider P and Q . Which of these has its HSA at a higher number? Write the label of whichever entry you select.
Response line: P

Attribution: patent US20210145976A1
